- System: HL-60(TB) leukemia
- run description: NCI-60 one-dose screen, 48 h
- test parameters: 10 µM unless noted
This is part of a sample that, as a whole, favours compounds with a hit. Of some 83,000 tested, about 20% had one in any assay. Calls of active or inactive are those of the source. Rule for the calls: active = growth percent below 10; inactive = the rest.
Log the outcome using a class from active, inactive

Answered cases to consult:
{"compound": "Cn1c(=O)c2c(nc(NC3=NS(=O)(=O)c4ccccc43)n2CC(=O)N2CCc3ccccc32)n(C)c1=O", "label class": "inactive"}
{"compound": "CN1CCC(c2ccccc2)(c2ccccc2)C(=O)C1", "label class": "inactive"}
{"compound": "O=C1N[C@@H]2NC(=[N+]3CCOCC3)N[C@@H]2N1", "label class": "inactive"}

Recorded test outcome, item Brc1c(-c2ccncc2)nc2n1CCS2
inactive

Recorded test outcome, item O=C(CI)NC1Oc2ccccc2-c2oc(=O)c(-c3ccccc3)cc21 (centres undefined)
active

Recorded test outcome, item Clc1ccc(-n2cnc3c(Cl)ncnc32)cc1Cl
inactive

Recorded test outcome, item Cc1cc(-c2cc(C)c(N)cc2C)c(C)cc1N
inactive
